- ASSAYED_TARGET: T1, Human mature myostatin (myostatin mature form; recombinant mature myostatin) (human (mature form 100% identical in …, UniProt O08689 268-376 (mouse entry), biotinylated in the Biacore assay (immobilized on a streptavidin chip); not labelled in the HEK Blue Assay)
- T1 construct: Disulfide-bonded homodimer of the C-terminal growth factor domain, purified from latent myostatin expressed in FreeStyle293-F cells; also called GDF-8 mature form; C-terminal growth factor domain of human myostatin
- T1 sequence: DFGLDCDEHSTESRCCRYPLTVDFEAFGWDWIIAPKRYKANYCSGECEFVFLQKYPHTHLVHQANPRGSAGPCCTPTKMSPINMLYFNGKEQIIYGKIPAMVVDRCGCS
- ASSAY_TEXT: SPR, Biacore T200, 37 degrees C; biotinylated mature myostatin on streptavidin chip, 100 nM antibody bound at pH 7.4; dissociation phase at pH 5.8
Reported koff values for the following binders.
The reply should be a number in s⁻¹, with the unit left off.

Here's what some known entries look like.
MS_M22601H1080-SG1/M22608L0837-SK1 (antibody, human IgG1, kappa, V domains shown, pH-dependent variant of MSLO00-SG1; also called MSLO02-SG1; LO02-SG1) VH: EVQLVESGGGLVQPGGSLRLSCAVSGFTLSHYVKGWVRQAPGKGLEWIGIINIEGSTYYASWAEGRFTISRDNSKNTVYLQMNSLRAEDTAVYFCARGHDNFGYSYHDFNLWGQGTLVTVSS VL: AVVMTQSPATLSLSPGERVTLSCQASESIHHELSWYQQKPGQPPKLLIYLASTLASGVPSRFKGSGSGTDFTLTISSLQPEDAATYYCQTYDGISHYGVAFGQGTKVEIKR : 0.00254
MS_M22601H1080-SG1/M22608L0846-SK1 (antibody, human IgG1, kappa, V domains shown, pH-dependent variant of MSLO00-SG1; also called MSLO04-SG1; LO04-SG1) VH: EVQLVESGGGLVQPGGSLRLSCAVSGFTLSHYVKGWVRQAPGKGLEWIGIINIEGSTYYASWAEGRFTISRDNSKNTVYLQMNSLRAEDTAVYFCARGHDNFGYSYHDFNLWGQGTLVTVSS VL: AVVMTQSPATLSLSPGERVTLSCQASQSIHHDLSWYQQKPGQPPKLLIYLASTLASGVPSRFKGSGSGTDFTLTISSLQPEDAATYYCQTYDGISHYGVAFGQGTKVEIKR : 0.00109
MS_M22601H-SG1/M22608L-SK1 (antibody, human IgG1, kappa, V domains shown, Humanized form of MST0226-G1m; the non pH-dependent antibody; also called MSLO00-SG1; LO00-SG1) VH: EVQLVESGGGLVQPGGSLRLSCAVSGFTLSNYVMGWVRQAPGKGLEWIGIINISGSTYYASWAKGRFTISRDNSKNTVYLQMNSLRAEDTAVYFCARGGDNFGYSYIDFNLWGQGTLVTVSS VL: AVVMTQSPATLSLSPGERVTLSCQASQSISNELSWYQQKPGQPPKLLIYLASTLASGVPSRFKGSGSGTDFTLTISSLQPEDAATYYCQTYDGISSYGVAFGQGTKVEIKR : 6.04e-05

Please turn your attention to the following entry.
Please indicate koff recorded for MS_M22601H1082-SG1/M22608L0837-SK1 (antibody, human IgG1, kappa, V domains shown, pH-dependent variant of MSLO00-SG1; also called MSLO03-SG1; LO03-SG1) VH: EVQLVESGGGLVQPGGSLRLSCAVSGFTLSHYVKGWVRQAPGKGLEWIGIINIEGETYYASWAKGRFTISRDNSKNTVYLQMNSLRAEDTAVYFCARGHDNFGYSYHDFNLWGQGTLVTVSS VL: AVVMTQSPATLSLSPGERVTLSCQASESIHHELSWYQQKPGQPPKLLIYLASTLASGVPSRFKGSGSGTDFTLTISSLQPEDAATYYCQTYDGISHYGVAFGQGTKVEIKR
0.00321
